The following compounds are listed with their measured LC3 puncta (log2) values.
System: Danio rerio larvae Tg(actc1b:ZsGreen-LC3), 3 dpf
Assay: LC3 puncta relative area vs vehicle (mean) (log2 fold change); higher = more autophagy
Conditions: NH4Cl: + NH4Cl; 100 µM; treatment time 16 h
Counter-ions that a name gives are not always drawn.
Number, no unit, nothing else.

For orientation, consider the following solved cases.
Tell me the measured LC3 puncta (log2) of CC(O)CC(=O)O (configuration not stated) [3-Hydroxybutyrate] , please.
0.353

Tell me the measured LC3 puncta (log2) of O=C(O)c1ccccc1 [Benzoic acid] , please.
1.5

Tell me the measured LC3 puncta (log2) of CCCCCCCC/C=C\CCCCCCCCCCCCCC(=O)O [Nervonic acid] , please.
1.09

Tell me the measured LC3 puncta (log2) of CCCCCCCCCC(=O)[O-].[Na+] [Sodium decanoate] , please.
-1.55

Tell me the measured LC3 puncta (log2) of CCCCCCCC(=O)O [Octanoic acid] , please.
0.553

Continuing:
Tell me the measured LC3 puncta (log2) of C[C@@H](O)C(=O)O [(2R)-2-hydroxypropanoic acid] , please.
0.304

Tell me the measured LC3 puncta (log2) of CCCCCCCC(=O)[O-].[Na+] [Sodium octanoate] , please.
0.342

Tell me the measured LC3 puncta (log2) of CCOC(=O)CC(O)(CC(=O)OCC)C(=O)OCC [Triethyl citrate] , please.
1.06

Provenance of the data: the supplement of paper PMC12532568
